# TEST SUMMARY: pKa from pH-dependence of fluorescence
# Type: physicochemical
# CONDITION SET: 50 mM buffer series, pH 5.00-9.50, Ex/Em 282/360 nm
ASSAY ENDPOINT: pKa

>>> quantitative_result("OC[C@H]1O[C@@H](n2nnc3c(O)ncnc32)[C@H](O)[C@@H]1O")
7.5

###

# TGT: GsSDMT (Galdieria sulphuraria)
# Sequence (M2XPA0 2-297): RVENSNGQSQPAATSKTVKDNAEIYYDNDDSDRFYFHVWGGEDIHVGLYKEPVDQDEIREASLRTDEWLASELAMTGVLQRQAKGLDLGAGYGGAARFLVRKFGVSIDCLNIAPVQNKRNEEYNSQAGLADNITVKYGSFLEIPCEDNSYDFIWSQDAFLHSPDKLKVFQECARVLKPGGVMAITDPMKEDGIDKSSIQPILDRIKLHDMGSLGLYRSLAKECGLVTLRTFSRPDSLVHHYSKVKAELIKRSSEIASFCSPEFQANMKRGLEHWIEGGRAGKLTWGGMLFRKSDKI
ASSAY ENDPOINT: Ki (nM)

>>> quantitative_result("Nc1ncnc2c1ncn2[C@@H]1O[C@H](C[C@@H](N)CC[C@H](N)C(=O)O)[C@@H](O)[C@H]1O [sinefungin]")
1800
